All figures here come from PubChem BioAssay (NCI).

# Tested on: MCF7 breast
# assayName: NCI tumour cell line growth inhibition, 48 h
Below is a list of entries, each paired with its recorded TGI value.

compound	targetUnderTest	measurementQualifier	TGI / µM
NCCCCCCn1c2c(c3ccccc3c1=O)C(=O)c1ccccc1-2	MCF7 breast	=	3.61
CC1=CC(=O)C(=C(C)C)CC1	MCF7 breast	>	100
CCCN1C(=O)/C(=C/c2cccc(O)c2)SC1=Nc1ccc(OC)cc1	MCF7 breast	=	29.2
Clc1ccc(N2CCN(CCCN3CCN(c4cccc(Cl)c4)CC3)CC2)cc1	MCF7 breast	=	12.2
O=C(COc1cccc(/C=C2/Oc3ccccc3C2=O)c1)Nc1nccs1	MCF7 breast	>	100
CCCN1C(=O)/C(=C/c2cccc(O)c2)SC1=Nc1ccccc1	MCF7 breast	>	100
Cc1cc2cc3c(Cl)c(CCCl)c(C)nc3cc2c(Cl)c1CCCl	MCF7 breast	=	56.7
COc1ccc2nc3c([N+](=O)[O-])ccc4c3c(c2c1)N(CCCN(C)C)C(=S)N4CCCN(C)C	MCF7 breast	=	19.2
N#Cc1c(N)nc(NCc2ccccc2)c(C#N)c1-c1ccc(Cl)cc1	MCF7 breast	=	83.1
CC(C)CCC[C@@H](C)[C@H]1CCC2C3=CCn4c(=O)ccc(=O)n4C3CC[C@@]21C (stereo partly specified)	MCF7 breast	=	1.4
Cc1cn(CCCCCCOC(=O)NC(CCCN=C(N)N)C(=O)O)c(=O)[nH]c1=O (stereo unspecified)	MCF7 breast	>	100
O=C1C(=C/C=C2/SC(c3ccccc3)(c3ccccc3)c3ccccc32)C(=O)c2ccccc21	MCF7 breast	>	100
CN1C(=O)N(C)C2C1NN=c1s/c(=C\c3ccccc3F)c(=O)n12 (stereo unspecified)	MCF7 breast	>	100
O=C(CN1CCN(c2ccccc2)CC1)c1ccc2[nH]c(=O)oc2c1	MCF7 breast	>	100
O=S(=O)(O)c1cc(N=Nc2c(O)ccc3ccccc23)c2c(S(=O)(=O)O)cccc2c1	MCF7 breast	>	100
CC(NNC(=S)N1CCCCCC1)c1cccnn1 (stereo unspecified)	MCF7 breast	=	0.901
O=CC1C(Cl)=Nc2nc3ccccc3n2C1c1ccc([N+](=O)[O-])cc1 (stereo unspecified)	MCF7 breast	=	67.9
CCN(CC)CCNC(=O)c1cn2ncnc(Oc3ccc(NC(=O)Nc4ccc(Cl)c(C(F)(F)F)c4)cc3)c2c1C	MCF7 breast	=	2.77
CCOC(=O)c1nc2ccccc2nc1Nc1ccc(Cl)c(Cl)c1	MCF7 breast	>	100
CCOc1ccc(N=NC2C(=O)N(C(=O)CC(=O)Nc3ccc(C)cc3)N=C2C)cc1 (stereo unspecified)	MCF7 breast	>	100
CCOC(=O)C1C(=O)CC(O)(c2ccccc2)C(C(=O)OCC)C1c1ccc(N(C)C)cc1 (stereo unspecified)	MCF7 breast	>	100

* * *

# Tested on: MCF7 breast
# assayName: NCI tumour cell line growth inhibition, 48 h; in the data active means GI50 below about 0.43 µM; inactive means the rest
Classes used: label 1 = active, label 0 = inactive

molecule	targetUnderTest	answerLabel
CN1CCN(c2ccc(N3Cc4ccccc4OC4=C3C(=O)c3c(O)ccc(O)c3C4=O)cn2)CC1	MCF7 breast	label 1
CC(C)CCC[C@@H](C)[C@H]1CCC2C3=CCn4c(=O)ccc(=O)n4C3CC[C@@]21C (some centres undefined)	MCF7 breast	label 1
CCC1=C(C)c2cc3[n-]c(cc4nc(c(C=O)c5[n-]c(cc1n2)c(C)c5CC)C(C)=C4CC)c(C)c3CC.[Ni+2]	MCF7 breast	label 0
O=C(COc1cccc(/C=C2/Oc3ccccc3C2=O)c1)Nc1nccs1	MCF7 breast	label 0
Nc1cc(N)c2nc(-c3ccccc3)c(Sc3ccc(Cl)c(Cl)c3)nc2c1	MCF7 breast	label 0
Cc1cc(C)c(C#N)c(SCC(=O)c2sc3c(C#N)c(C)cc(C)[n+]3c2[O-])n1	MCF7 breast	label 1
O=C1c2ccccc2C(=O)c2c1ccc(C(Br)Br)c2Cl	MCF7 breast	label 0
CN1C(=O)/C(=C/c2c(Cl)[nH]c3ccccc23)c2ccccc21	MCF7 breast	label 0
CN1C(=O)N(C)C2C1NN=c1s/c(=C\c3ccccc3F)c(=O)n12 (centres undefined)	MCF7 breast	label 1

* * *

# System: SN12C renal
# assayName: NCI tumour cell line growth inhibition, 48 h

compound	targetUnderTest	measurementQualifier	TGI / µM
CCOC(=O)c1sc2nc(SC)nc(N3CCCCC3)c2c1N	SN12C renal	>	100
CC(C)(OCc1ccccc1)c1ccccc1P(c1ccccc1)c1ccccc1	SN12C renal	>	100
CC1=NN(c2nc(N)nc(COCc3nc(N)nc(N4N=C(C)CC4(C)C)n3)n2)C(C)(C)C1	SN12C renal	>	100
CC(C)OC(=O)c1ccc(CCc2cc(O)c(Br)cc2O)cc1	SN12C renal	=	28.9
CCCCCCCCCCCC(=O)c1c(O)cc(C)oc1=O	SN12C renal	>	100
CN1C(=O)N(C)C2C1NN=c1s/c(=C\c3ccccc3F)c(=O)n12 (configuration not stated)	SN12C renal	>	100
CC1CN=C(N(C(=O)Nc2ccccc2)c2ccccc2)S1 (configuration not stated)	SN12C renal	=	62.9
COc1ccc(NC(=S)N=Nc2c(O)[nH]c3ccccc23)cc1	SN12C renal	>	89
CCc1c2c(nc3ccc(OC(=O)NCc4ccc(B5OC(C)(C)C(C)(C)O5)cc4)cc13)-c1cc3c(c(=O)n1C2)COC(=O)[C@]3(O)CC	SN12C renal	>	100
O=c1c(O)c(-c2ccccc2)n(O)c2ccc(Cl)cc12	SN12C renal	=	49.8
N#Cc1cccc(N2C(=O)c3ccc(C(=O)c4ccc5c(c4)C(=O)N(c4cccc(C#N)c4)C5=O)cc3C2=O)c1	SN12C renal	>	100
CC1=c2c(oc3cc(O)c(Nc4c(C)cc(O)cc4O)c(C)c23)=CC(=O)C1=Nc1c(C)cc(O)cc1O	SN12C renal	=	73.7
COc1ccc2c(-c3ccc(OCCN(C)C)cc3)c(Oc3ccccc3)c(=O)oc2c1	SN12C renal	=	18.7
CC(=O)N(C)c1ccc2ncccc2c1[N+](=O)[O-]	SN12C renal	>	100
C[N+](C)(C)CC(=O)N/N=C(/Cc1nc2ccc(Cl)cc2[nH]c1=O)C1=NS(=O)(=O)c2cc(S(N)(=O)=O)c(Cl)cc2N1	SN12C renal	>	100
CNc1cc(OCc2ccccc2)c(OC)cc1C(=O)N1CCC[C@H]1CO	SN12C renal	>	100
Brc1ccc2[nH]cc([C@H]3CN[C@@H](c4c[nH]c5ccc(Br)cc45)CN3)c2c1	SN12C renal	=	9.89
Cc1c(Cl)ccc2c1NC(=O)C2(O)CC(=O)c1ccc2ccccc2c1 (configuration not stated)	SN12C renal	>	100
Nc1ccc2c(c1)S(=O)(=O)c1cc(O)ccc1O2	SN12C renal	>	100
CC(C)=CCC/C(C)=C\CC/C(C)=C/CO	SN12C renal	>	100
COC1=CC(=C(C#N)C(=Nc2ccccc2)SC)C=C(OC)C1=O	SN12C renal	>	100
Cn1c2c(c3ccc(-c4ccn[nH]4)cc3c1=O)C(=O)c1ccccc1-2	SN12C renal	=	8.86
Cc1ccccc1C1=C/C(=C(\SS/C(C(=O)c2ccc(OCC(=O)O)c(Cl)c2Cl)=C2\C=C(c3ccccc3C)SS2)C(=O)c2ccc(OCC(=O)O)c(Cl)c2Cl)SS1	SN12C renal	=	50.6
Cc1cn(C2CC(n3cncn3)C(C(C)O)O2)c(=O)[nH]c1=O (configuration not stated)	SN12C renal	>	100
COc1ccc2nc3c([N+](=O)[O-])ccc4c3c(c2c1)N(CCCN(C)C)C(=S)N4CCCN(C)C	SN12C renal	=	19.2
c1ccc2c(c1)c(N1CCCCC1)cc1nc3c(cc(N4CCCCC4)c4ccccc43)nc12	SN12C renal	>	100
CC1C2C=CC1C(c1c3ccc(=O)c(O)c-3oc3c(O)c(O)ccc13)C2C(=O)O (configuration not stated)	SN12C renal	=	51.1
COC(=O)c1nn(-c2ccccc2)c(=O)cc1N=[N+]=[N-]	SN12C renal	>	100
NC1CCC[C@H]1O (some centres not stated)	SN12C renal	>	100
O=C(/C=C/c1c(O)ccc2ccccc12)c1ccccc1Cl	SN12C renal	=	86.5
CNC(=S)N/N=C(\C)c1cc(OC)ccc1O	SN12C renal	>	100
COc1ccc(/C(Cl)=C(\C=O)c2ccc(Cl)c(Cl)c2)cc1	SN12C renal	=	29.2
CCC(=O)O[C@H]1CC[C@H]2[C@@H]3CCC4=CC(=O)C=C[C@]4(O)[C@H]3CC[C@]12C	SN12C renal	>	100
CC#CC(OCC)(OCC)OCC	SN12C renal	>	100
Oc1ccccc1N=Cc1c(O)ccc2ccccc12	SN12C renal	=	71.9
CCCCCCCCCCCC1=NCCN1	SN12C renal	>	100
O=c1n(N=S(=O)(c2ccccc2)c2ccccc2)c(=O)n2n1C1C=CC2CC1	SN12C renal	>	100
O=C1Cc2c([nH]c3ccc([N+](=O)[O-])cc23)-c2ccccc2N1	SN12C renal	=	19.1
Cc1cnc(Cl)nc1C(C#N)c1nc2ccccc2s1 (configuration not stated)	SN12C renal	=	63.2
COc1ccc2c(c1)CN1C(=N2)CSC1c1c(Cl)cccc1[N+](=O)[O-] (configuration not stated)	SN12C renal	=	35
CC1=CCCC(C)(O)C2CC(CCC3(C)OC3CC1)C(C)C(=O)O2 (configuration not stated)	SN12C renal	>	100
CC(=O)N1N=C(c2cc(C)ccc2O)CC1c1cccc(Cl)c1 (configuration not stated)	SN12C renal	=	77
